Reference source for all entries: patent US20170073386A1

- target-entity: T1, human GITR-Fc (human, UniProt Q9Y5U5 26-162, conjugated with europium cryptate in the HTRF assays)
- T1 construct: also called hGITR-Fc; hGITRFc; not shown: Fc domain of hIgG1
- T1 sequence: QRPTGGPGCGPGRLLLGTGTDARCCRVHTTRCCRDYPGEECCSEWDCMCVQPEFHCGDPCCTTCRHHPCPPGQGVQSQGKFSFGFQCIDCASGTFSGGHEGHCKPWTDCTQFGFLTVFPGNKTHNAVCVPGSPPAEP
- method: HTRF competition; competitor GITRL-HA on GITR-Fc
Entries and their measured IC50 follow.
Report the value in nM with no unit label.

1. hexameric GITRL FP (Coronin 1a wt) (Fc fusion, not shown: a dimerising Fc or GST; small tags and cut ends) chain (part 1 of 2): VSRLEEEMRKLQATVQELQKRLDRLEETVQAK chain (part 2 of 2): LQLETAKEPCMAKFGPLPSKWQMASSEPPCVNKVSDWKLEILQNGLYLIYGQVAPNANYNDVAPFEVRLYKNKDMIQTLTNKSKIQNVGGTYELHVGDTIDLIFNSEHQVLKNNTYWGIILLANPQFIS
0.61

For the next question, use this binder.
Q: Sample hexameric GITRL FP (Langerin variant) (Fc fusion, not shown: a dimerising Fc or GST; small tags and cut ends) chain (part 1 of 2): ISALNTKIRAIQGSIENMSKLIKRQNDIIQVVS chain (part 2 of 2): LQLETAKEPCMAKFGPLPSKWQMASSEPPCVNKVSDWKLEILQNGLYLIYGQVAPNANYNDVAPFEVRLYKNKDMIQTLTNKSKIQNVGGTYELHVGDTIDLIFNSEHQVLKNNTYWGIILLANPQFIS — what was its IC50?
Result: 2
